System: SW480 colorectal cancer cells
Assay: Gene expression qRT-PCR in SW480 cells
Format: cell-based
Conditions: Homo sapiens; SW480, 3 μM, 24 hours, relative to DMSO; read-out: gene expression fold change SRSF1
So basically, if fold induction at 3 µM comes in under 0.3 it's Criterion met, and if it's 0.3 or more it's Criterion not met.

>  <molecule>
Cc1n[nH]c2ccc(-c3cncc(OC[C@H](N)Cc4ccccc4)n3)cc12 [Compound 2]

>  <assigned-label>
Criterion met

$$$$
>  <molecule>
CC(C)N1CCC(n2cc(C(=O)Nc3cc4cc(-c5cnn(C)c5)ccc4cn3)cn2)CC1 [Compound 11]

>  <assigned-label>
Criterion not met

$$$$
>  <molecule>
CN(C)CCN(C)c1ccc(NC(=O)c2n[nH]c3ccc(-c4cncc(CN5CCCCC5)c4)cc23)cn1 [Compound 6]

>  <assigned-label>
Criterion met

$$$$
>  <molecule>
Cc1nc(Nc2n[nH]c3c2CN(C(=O)N[C@H](CN(C)C)c2ccccc2)C3(C)C)c2sccc2n1 [Compound 25]

>  <assigned-label>
Criterion met

$$$$
>  <molecule>
Cc1ncc(C(=O)Nc2cc3cc(-c4cnc(C)n4C)ccc3cn2)s1 [Compound 16]

>  <assigned-label>
Criterion not met

$$$$
>  <molecule>
Cc1ncc(NC(=O)c2n[nH]c3ccc(-c4cnn(C5CCNCC5)c4)cc23)s1 [Compound 5]

>  <assigned-label>
Criterion not met

$$$$

---

List of EC50 values.
Tested on: CAMA1
Assay: CellTiter-Glo Viability Assay, breast cancer
Assay type: cell-based
Settings: Homo sapiens, CAMA-1, 96 h; CAMA1, breast cancer, four days; read-out: EC50

>  <molecule>
CN1CCC2(CC1)CN(c1cc(C(=O)Nc3cc4cc(-c5cnn(C)c5)ccc4cn3)ccn1)C2 [Compound 71]

>  <assay-system>
CAMA1

>  <EC50 [nM]>
307

$$$$
>  <molecule>
Cn1cc(-c2ccc3cnc(NC(=O)c4ccc5c(c4)CNCC5)cc3c2)cn1 [Compound 74]

>  <assay-system>
CAMA1

>  <EC50 [nM]>
694

$$$$
>  <molecule>
CC(C)Nc1cncc(-c2ccc3cnc(NC(=O)c4cn(C5CCN(CCF)CC5)nn4)cc3c2)n1 [Compound 85]

>  <assay-system>
CAMA1

>  <EC50 [nM]>
399

$$$$
>  <molecule>
Cc1n[nH]c2ccc(-c3cncc(N[C@H]4CC[C@@H](N)CC4)n3)cc12 [Compound 64]

>  <assay-system>
CAMA1

>  <EC50 [nM]>
473

$$$$
>  <molecule>
CN1CCN(c2cc(C(=O)Nc3cc4cc(-c5cn(C)nn5)ccc4cn3)ccn2)CC1 [Compound 14]

>  <assay-system>
CAMA1

>  <EC50 [nM]>
329

$$$$
>  <molecule>
CN1CCN(c2cc(C(=O)Nc3cc4cc(-c5cnn(C)c5N)ccc4cn3)ccn2)CC1 [Compound 75]

>  <assay-system>
CAMA1

>  <EC50 [nM]>
216

$$$$

---

Tested on: pancreatic cancer (8 cell lines)
Test: CellTiter-Glo Viability Assay, pancreatic cancer
Assay type: cell-based
Settings: Homo sapiens, Capan-2; Capan2 cell line; inhibition of cancer cell proliferation; read-out: Pancreatic cancer, EC50 Capan2
pEC50: −log10 of the molar value.
Listing of entries alongside the reported pEC50.

>  <chem-smiles>
Cn1ncc(-c2ccc3cnc(NC(=O)c4cccc(CN5CCCC5)c4)cc3c2)c1CN1CCCCC1

>  <assay-system>
pancreatic cancer (8 cell lines)

>  <sign>
=

>  <pEC50>
5.98

$$$$
>  <chem-smiles>
CN1CCC(Oc2ccc(C(=O)Nc3cc4cc(-c5cnn(C)c5)ccc4cn3)cc2)CC1

>  <assay-system>
pancreatic cancer (8 cell lines)

>  <sign>
=

>  <pEC50>
5.78

$$$$
>  <chem-smiles>
CN1CCN(c2cc(Nc3ncc4c(-c5ccc6ncccc6c5)c[nH]c4n3)ccn2)CC1

>  <assay-system>
pancreatic cancer (8 cell lines)

>  <sign>
=

>  <pEC50>
5.95

$$$$
>  <chem-smiles>
CN1CCN(c2cc(C(=O)Nc3cc4cc(-c5cn(C)nn5)ccc4cn3)ccn2)CC1

>  <assay-system>
pancreatic cancer (8 cell lines)

>  <sign>
=

>  <pEC50>
6.33

$$$$
>  <chem-smiles>
CN1CC=C(c2cc(C(=O)Nc3cc4cc(-c5cncc(NC(C)(C)C)n5)cnc4cn3)ccn2)CC1

>  <assay-system>
pancreatic cancer (8 cell lines)

>  <sign>
=

>  <pEC50>
5.58

$$$$
>  <chem-smiles>
CC(C)Nc1cncc(-c2ccc3cnc(NC(=O)c4cn(C5CCN(CCF)CC5)nn4)cc3c2)n1

>  <assay-system>
pancreatic cancer (8 cell lines)

>  <sign>
=

>  <pEC50>
6.53

$$$$
>  <chem-smiles>
CN1CCC(C(=O)Nc2c[nH]nc2-c2nc3c(-c4ccc(F)s4)cccc3[nH]2)CC1

>  <assay-system>
pancreatic cancer (8 cell lines)

>  <sign>
=

>  <pEC50>
6.82

$$$$
>  <chem-smiles>
CN1CCN(c2cc(C(=O)Nc3cc4cc(-c5cnn(C)c5)c(F)cc4cn3)ccn2)CC1

>  <assay-system>
pancreatic cancer (8 cell lines)

>  <sign>
=

>  <pEC50>
5.85

$$$$
>  <chem-smiles>
Cc1n[nH]c2ccc(-c3cncc(N[C@H]4CC[C@@H](N)CC4)n3)cc12

>  <assay-system>
pancreatic cancer (8 cell lines)

>  <sign>
=

>  <pEC50>
6.44

$$$$
>  <chem-smiles>
Cc1n[nH]c2ccc(-c3cncc(N[C@H]4CC[C@H](O)CC4)n3)cc12

>  <assay-system>
pancreatic cancer (8 cell lines)

>  <sign>
=

>  <pEC50>
6.12

$$$$
>  <chem-smiles>
CN1CCN(c2cc(C(=O)Nc3cc4cc(-c5nnc(N(C)C)s5)ccc4cn3)ccn2)CC1

>  <assay-system>
pancreatic cancer (8 cell lines)

>  <sign>
=

>  <pEC50>
5.89

$$$$
>  <chem-smiles>
CN1CCC2(CC1)CN(c1cc(C(=O)Nc3cc4cc(-c5cnn(C)c5CO)ccc4cn3)ccn1)C2

>  <assay-system>
pancreatic cancer (8 cell lines)

>  <sign>
=

>  <pEC50>
5.93

$$$$
>  <chem-smiles>
COc1ccc(NC(=O)c2n[nH]c3ccc(-c4cncc(CN5CCCCC5)c4)cc23)cn1

>  <assay-system>
pancreatic cancer (8 cell lines)

>  <sign>
=

>  <pEC50>
7.26

$$$$
>  <chem-smiles>
CC(C)CC(=O)Nc1cncc(-c2ccc3[nH]nc(-c4cc5c(N6CCCCC6)cncc5[nH]4)c3c2)c1

>  <assay-system>
pancreatic cancer (8 cell lines)

>  <sign>
=

>  <pEC50>
5.66

$$$$
>  <chem-smiles>
O=C1CCc2cccc(c2)-c2cncc3[nH]c(nc23)-c2n[nH]c3ccc(cc23)-c2cncc(c2)N1

>  <assay-system>
pancreatic cancer (8 cell lines)

>  <sign>
<

>  <pEC50>
5.46

$$$$
>  <chem-smiles>
Cc1cc2ncc(-c3ccc4cnc(NC(=O)c5ccnc(N6CCN(C)CC6)c5)cc4c3)cc2[nH]1

>  <assay-system>
pancreatic cancer (8 cell lines)

>  <sign>
=

>  <pEC50>
5.93

$$$$
>  <chem-smiles>
CN1CCC(Oc2ccc(NC(=O)c3n[nH]c4cc(F)c(-c5cnn(C)c5)cc34)cc2)CC1

>  <assay-system>
pancreatic cancer (8 cell lines)

>  <sign>
=

>  <pEC50>
5.57

$$$$
>  <chem-smiles>
c1cncc(-c2ccc3[nH]nc(-c4cc5c(-c6cccnc6)cncc5[nH]4)c3c2)c1

>  <assay-system>
pancreatic cancer (8 cell lines)

>  <sign>
<

>  <pEC50>
5.46

$$$$
>  <chem-smiles>
CN1CCN(c2ccc(NC(=O)c3n[nH]c4ccc(-c5cncc(NC(=O)C6CC6)c5)cc34)cn2)CC1

>  <assay-system>
pancreatic cancer (8 cell lines)

>  <sign>
=

>  <pEC50>
5.89

$$$$
>  <chem-smiles>
CN1CCC(Oc2ccc(NC(=O)c3n[nH]cc3/C=C/c3cccnc3)cn2)CC1

>  <assay-system>
pancreatic cancer (8 cell lines)

>  <sign>
<

>  <pEC50>
5.00

$$$$
>  <chem-smiles>
O=C1COc2cccc(c2)-c2cncc3[nH]c(nc23)-c2n[nH]c3ccc(cc23)-c2cncc(c2)N1

>  <assay-system>
pancreatic cancer (8 cell lines)

>  <sign>
<

>  <pEC50>
5.00

$$$$
>  <chem-smiles>
CN(C)Cc1cncc(-c2ccc3[nH]nc(-c4cc5c(-c6ccoc6)ccnc5[nH]4)c3c2)c1

>  <assay-system>
pancreatic cancer (8 cell lines)

>  <sign>
<

>  <pEC50>
5.00

$$$$
>  <chem-smiles>
CN1CCCn2cc(nn2)-c2nccc3[nH]c(nc23)-c2n[nH]c3ccc(cc23)-c2cncc(c2)C1

>  <assay-system>
pancreatic cancer (8 cell lines)

>  <sign>
<

>  <pEC50>
5.00

$$$$

---

Tested on: colorectal cancer (6 cell lines)
Test: CellTiter-Glo Viability Assay, colorectal cancer
Assay type: cell-based
Conditions: Homo sapiens, HT-29; HT29 cell line; inhibition of cancer cell proliferation; read-out: Colorectal cancer, EC50 (μM) HT29
Protocol: Fifty-one human cancer cell lines (breast cancer (8 cell lines), colorectal cancer (6 cell lines), haematopoietic & lymphoid tumors (13 cell lines), liver cancer (3 cell lines), lung cancer (4 cell lines), ovarian cancer (4 cell lines), pancreatic cancer (8 cell lines), and prostate cancer (5 cell lines)) were tested to determine the effects of representative compounds of Formulas (I)-(XII) on cellular proliferation, as evaluated using the CellTiter-Glo® Viability Assay. […]
measure-name: EC50

>  <chem-smiles>
O=C1CCc2cccc(c2)-c2cncc3[nH]c(nc23)-c2n[nH]c3ccc(cc23)-c2cncc(c2)N1

>  <assay-system>
colorectal cancer (6 cell lines)

>  <measure-name>
EC50

>  <result>
> 3.5 µM

$$$$
>  <chem-smiles>
O=C(Nc1ccc(OCCN2CCCC2)cc1)c1n[nH]cc1/C=C/c1cccnc1

>  <assay-system>
colorectal cancer (6 cell lines)

>  <measure-name>
EC50

>  <result>
> 10 µM

$$$$
>  <chem-smiles>
CN1CCCn2cc(nn2)-c2nccc3[nH]c(nc23)-c2n[nH]c3ccc(cc23)-c2cncc(c2)C1

>  <assay-system>
colorectal cancer (6 cell lines)

>  <measure-name>
EC50

>  <result>
> 10 µM

$$$$
